Could you please report measured hAPJ Ca2+ Flux EC50 for the items listed next?
# tested_system: T1, human APJ receptor (hAPJ) (human, UniProt P35414 1-380)
# T1 sequence (looked up): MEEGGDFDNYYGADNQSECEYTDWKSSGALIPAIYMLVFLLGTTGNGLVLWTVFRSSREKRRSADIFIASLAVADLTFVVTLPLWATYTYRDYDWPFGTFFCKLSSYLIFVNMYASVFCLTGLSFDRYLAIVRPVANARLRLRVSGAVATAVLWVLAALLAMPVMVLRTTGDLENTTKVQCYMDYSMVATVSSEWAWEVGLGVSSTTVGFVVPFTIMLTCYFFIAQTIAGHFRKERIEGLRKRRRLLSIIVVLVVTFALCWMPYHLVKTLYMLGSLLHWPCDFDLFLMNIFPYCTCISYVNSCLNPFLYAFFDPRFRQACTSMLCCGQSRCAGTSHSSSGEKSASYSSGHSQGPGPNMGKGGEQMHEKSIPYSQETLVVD
# protocol_text: cell-based or functional assay
Bridges are numbered along the chain shown (N, C = ends). [ ]: non-standard residue; d: D form. pGlu = O=C1CC[C@@H](C(=O)O)N1; Nle = CCCC[C@H](N)C(=O)O

Indicate the recorded hAPJ Ca2+ Flux EC50 value for this binder: [pGlu]RPRLCHKGP[Nle]CF-NH2 (disulfide 6-12; SMILES CCCC[C@@H]1NC(=O)[C@@H]2CCCN2C(=O)CNC(=O)[C@H](CCCCN)NC(=O)[C@H](Cc2c[nH]cn2)NC(=O)[C@@H](NC(=O)[C@H](CC(C)C)NC(=O)[C@H](CCCNC(=N)N)NC(=O)[C@@H]2CCCN2C(=O)[C@H](CCCNC(=N)N)NC(=O)[C@@H]2CCC(=O)N2)CSSC[C@@H](C(=O)N[C@@H](Cc2ccccc2)C(N)=O)NC1=O) [Example 62: pE-R-P-R-L-C-H-K-G-P-Nle-C-F-NH2] 3.32 nM

Name the recorded hAPJ Ca2+ Flux EC50 of the binder listed here: [pGlu]RPRLCHKGP[Nle]C-OH (disulfide 6-12; SMILES CCCC[C@@H]1NC(=O)[C@@H]2CCCN2C(=O)CNC(=O)[C@H](CCCCN)NC(=O)[C@H](Cc2c[nH]cn2)NC(=O)[C@@H](NC(=O)[C@H](CC(C)C)NC(=O)[C@H](CCCNC(=N)N)NC(=O)[C@@H]2CCCN2C(=O)[C@H](CCCNC(=N)N)NC(=O)[C@@H]2CCC(=O)N2)CSSC[C@@H](C(=O)O)NC1=O) [Example 50: pE-R-P-R-L-C-H-K-G-P-Nle-C-OH] 1.92 nM
